Assay: solubility of beta-carotene in potential solvents
Type: physicochemical
Conditions: organic solvent or mixture; solvent methyl pyrrolidone; slightly soluble; read-out: solubility in methyl pyrrolidone
Excerpt: The present invention is based, at least in part, on the discovery that one or more solvents such as tetrahydrofuran (THF), can be employed to form an improved cochleate with fragile nutrients such as beta-carotene at desirable concentrations. Suitable solvents and solvent mixtures that can be employed in connection with the present invention and can readily be identified by a person of skill in the art employing the teachings provided herein and knowledge in the art. […]
READOUT_KIND: solubility

COMPOUND	RESULT
CC1=C(/C=C/C(C)=C/C=C/C(C)=C/C=C/C=C(C)/C=C/C=C(C)/C=C/C2=C(C)CCCC2(C)C)C(C)(C)CCC1 [beta-carotene]	< 1000 µg/mL
